Target: Mitogen-activated protein kinase 8 (Homo sapiens, UniProt P45983)
Sequence (P45983 whole entry): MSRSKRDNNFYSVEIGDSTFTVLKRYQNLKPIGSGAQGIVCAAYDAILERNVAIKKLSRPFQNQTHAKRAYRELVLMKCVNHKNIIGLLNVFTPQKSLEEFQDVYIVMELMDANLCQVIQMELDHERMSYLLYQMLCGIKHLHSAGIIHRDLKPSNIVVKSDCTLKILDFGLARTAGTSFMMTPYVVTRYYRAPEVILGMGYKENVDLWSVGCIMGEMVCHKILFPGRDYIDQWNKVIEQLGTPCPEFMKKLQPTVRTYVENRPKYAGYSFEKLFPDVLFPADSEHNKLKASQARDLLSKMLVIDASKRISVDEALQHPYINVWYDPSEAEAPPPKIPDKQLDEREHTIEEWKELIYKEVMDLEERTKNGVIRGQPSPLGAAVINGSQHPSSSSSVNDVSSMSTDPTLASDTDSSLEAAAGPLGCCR
Assay: Inhibition of human JNK1 by radiometric assay
pIC50: −log10 of the molar value.

| molSmiles | measuredOn | pIC50 |
| --- | --- | --- |
| CCC(=O)c1c(-c2ccccc2)c2cc(Cl)ccc2c(=O)n1Cc1cc(C(=O)NC2CC2)n(C)n1 | Mitogen-activated protein kinase 8 (Homo sapiens, UniProt P45983) | 8.19 |
| CCC(=O)c1c(-c2ccccc2)c2cc(Cl)ccc2c(=O)n1Cc1cc(C(N)=O)n(C)n1 | Mitogen-activated protein kinase 8 (Homo sapiens, UniProt P45983) | 8.14 |
| CCC(=O)c1c(-c2ccccc2)c2cc(Cl)ccc2c(=O)n1Cc1ccc(S(C)(=O)=O)cc1 | Mitogen-activated protein kinase 8 (Homo sapiens, UniProt P45983) | 7.55 |
| CCC(=O)c1c(-c2ccccc2)c2cc(Cl)ccc2c(=O)n1Cc1cc(S(C)(=O)=O)n(CC(N)=O)n1 | Mitogen-activated protein kinase 8 (Homo sapiens, UniProt P45983) | 8.09 |
